MEASUREMENT_TARGET: KAT7 (Homo sapiens (Human))
Sequence (O95251 whole entry): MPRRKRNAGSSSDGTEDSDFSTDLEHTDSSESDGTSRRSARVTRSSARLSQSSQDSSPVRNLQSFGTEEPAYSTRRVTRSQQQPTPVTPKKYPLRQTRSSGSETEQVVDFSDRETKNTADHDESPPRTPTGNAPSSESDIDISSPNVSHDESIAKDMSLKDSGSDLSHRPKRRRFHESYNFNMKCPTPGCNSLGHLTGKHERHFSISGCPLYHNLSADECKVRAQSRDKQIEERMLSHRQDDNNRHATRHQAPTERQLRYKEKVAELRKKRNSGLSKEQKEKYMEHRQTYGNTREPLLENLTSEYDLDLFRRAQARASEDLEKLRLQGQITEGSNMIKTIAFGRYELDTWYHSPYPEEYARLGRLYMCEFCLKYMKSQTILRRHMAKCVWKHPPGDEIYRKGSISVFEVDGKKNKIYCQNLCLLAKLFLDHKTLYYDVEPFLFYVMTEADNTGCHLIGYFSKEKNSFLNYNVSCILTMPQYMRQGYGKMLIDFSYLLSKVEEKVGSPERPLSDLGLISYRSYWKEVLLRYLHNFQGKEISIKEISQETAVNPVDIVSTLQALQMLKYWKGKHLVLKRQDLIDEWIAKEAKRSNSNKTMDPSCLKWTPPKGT
ASSAY_NOTES: KAT assay (SAMDI mass spectrometry), KAT7;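 note: Baculovirus-expressed enzyme acetylating a histone peptide at room temperature, percent conversion from product and substrate peak areas, Ki from a Morrison tight-binding competitive fit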
Type: biochemical
PARTICULARS: read-out: KAT7 Ki at 1 μM AcCoA
ASSAY_READOUT: Ki (µM)

(I) COc1cc(Cn2cccn2)cc2onc(NS(=O)(=O)c3cc(F)c(Cl)cc3F)c12
(II) CCc1nc2cc(S(=O)(=O)Nc3noc4cc(Cn5cccn5)cc(OC)c34)ccc2o1
(III) COc1cc(Cn2cccn2)cc2onc(NS(=O)(=O)c3cc(C)cc(C)c3)c12
(IV) COc1cc(OC)c(S(=O)(=O)Nc2noc3cc(Cn4cccn4)cc(OC)c23)c(OC)c1
Please list the entries, largest Ki first. The reply should contain the labels ordered as requested.
II, III, I, IV
(II: 1.62 µM, III: 0.41 µM, I: 0.25 µM, IV: 0.05 µM)
